Test system: OVCAR-3
Assay: NCI tumour cell line growth inhibition, 48 h
Active and inactive are the calls of the source. No stated cut-off is given here; in the data, active = GI50 up to about 1.1 µM and inactive = higher.
READOUT LABEL: GI50

COMPOUND	MEASURED RESULT
Cc1c(Cl)ccc2c1NC(=O)C2(O)CC(=O)c1cccc2ccccc12 (stereo not given)	78.3 µM (inactive)
Fc1cccc(F)c1C1SCc2nc3cc4ccccc4cc3n21 (stereo not given)	15.7 µM (inactive)
COc1ccc(-c2ccc(C(=O)C=P(c3ccccc3)(c3ccccc3)c3ccccc3)cc2)cc1	3.41 µM (inactive)
COc1ccc(/C=C2\CN(C)CC3C2=NN(c2ccccc2)C3c2ccc(OC)cc2)cc1 (stereo not given)	> 100 µM (inactive)
c1cncc(CNCCN2CCNCC2)c1	> 100 µM (inactive)

====

Test system: M14
Experiment: NCI tumour cell line growth inhibition, 48 h
Active and inactive are the calls of the source. Cut-off read from the data, not from the text of the source: active = GI50 up to about 1.1 µM and inactive = higher.
Classes used: active, inactive

COMPOUND	LABEL VALUE
CC1(Br)C(=O)NC(=O)N(C2CC(N=[N+]=[N-])C(CO)O2)C1N=[N+]=[N-] (stereo not given)	inactive
Cc1c(S(=O)(=O)c2ccccc2)c(N)n(Cc2ccccc2)c1C	inactive
NS(=O)(=O)c1ccc(/N=N/c2nc3[nH]cnc(=S)c3[nH]2)cc1	active
CC1=CC(=O)/C(=C(/C)NCCN(CCN/C(C)=C2\C(=O)C=C(C)OC2=O)CCN/C(C)=C2\C(=O)C=C(C)OC2=O)C(=O)O1	inactive
CON(C)C(=O)[C@H]1C[C@@]1(C)CO	inactive
CC(C)(C)N1CC1CNC(=O)C(=O)NCC1CN1C(C)(C)C (stereo not given)	inactive
CC1(C)CC(O)C(C)(C)[C@@H](O)C1 (stereo not given in full)	inactive
CCOC(=O)c1nnsc1NC(=O)NCCCCCCn1c(=O)n(CCCCCCNC(=O)Nc2snnc2C(=O)OCC)c(=O)n(CCCCCCNC(=O)Nc2snnc2C(=O)OCC)c1=O	inactive
c1cc(CSc2ncnc3[nH]cnc23)ccn1	inactive
Cc1nc([N+](=O)[O-])cn1-c1nc2ccccn2c1[N+](=O)[O-]	inactive
Cc1ccc(S(=O)(=O)N(/N=C(\N)Oc2ccc(Cl)cc2)C(=N)Oc2ccc(Cl)cc2)cc1	inactive
COc1ccc(NC(=O)C(=O)Cc2nc3ccc([N+](=O)[O-])cc3nc2O)c(OC)c1	inactive
CNC(=S)N(C1CCCCC1)C1CCCCC1	inactive
C[C@H](CCC(=O)O)[C@H]1CC[C@@]2(C)[C@@H]3C(=O)C[C@H]4C(C)(C)[C@@H](O)CC[C@]4(C)[C@H]3C(=O)C[C@]12C	inactive
CCC/N=C1\S/C(=C/c2ccc(OC)c(OC)c2)C(=O)N1c1ccccc1	inactive
O=c1[nH]c(=O)n(C2CC(O)C(O)C(CO)O2)cc1F (stereo not given)	inactive
COc1cccc(/C=C(\NC(C)=O)c2nc3cc(Cl)ccc3[nH]2)c1	inactive
CCC(=O)NC(Nc1cccc(F)c1C)(C(F)(F)F)C(F)(F)F	inactive
CO/C=C(/C(=O)OC)c1ccccc1[C@H]1C[C@@H]1c1ccccc1	inactive
COc1c(Br)cc2c(c1OC)C(Br)CCC(Br)(Br)C2=O (stereo not given)	active
CCOC(=O)C(NC(=O)c1cccc(Cl)c1)(N1CCN(c2cc3c(cc2F)c(=O)c(C(=O)O)cn3CC)CC1)C(F)(F)F (stereo not given)	inactive
CCCCC(=O)c1c(O)nc2sccn2c1=O	inactive
O=[N+]([O-])/C(C(Cl)=C(Cl)Cl)=C(\N1CCCCC1)n1nnc2ccccc21	inactive
CN(C)c1ccc(/C=C2\CNC/C(=C\c3ccc(N(C)C)cc3)C2=O)cc1	inactive
C=CCC(C(=O)OC)C1(C(=O)OC)c2[nH]c3ccccc3c2CCN1Cc1ccccc1 (stereo not given)	inactive
CC(CN(C)C)C(=O)/C=C/c1ccc(Cl)c(Cl)c1 (stereo not given)	inactive
COC1CCC(O)C(CO)O1 (stereo not given)	inactive
C=C(C(=O)OC)[C@@H]1C[C@@H](OC(C)=O)C2=C[C@H](C[C@@]3(C)O[C@@H]3C3=CC(C)=C(O3)[C@H]1OC(C)=O)OC2=O	inactive
O=C1NC(=O)C(C(=O)C(=O)Nc2ccc(Cl)cc2Cl)C(=O)N1	inactive
Cc1cccc(C(C)(C)C)c1NC(=O)C(=O)C(C(=O)/C=C\c1ccccc1)C1OC(=O)c2ccccc21 (stereo not given)	inactive
CCN(CC)CCSc1c2ccccc2nc2cc(NCC(=O)Nc3ccccc3-c3ccccc3NC(=O)CNc3ccc4c(SCCN(CC)CC)c5ccccc5nc4c3)ccc12	inactive
CC1(C)CN=C(Nc2ccc(Cl)cc2)S1	inactive
COc1ccc(C2CC(c3c(O)ccc4ccccc34)=NN2)cc1OC (stereo not given)	inactive
Nc1ccc(OCCCc2c(-c3ccccc3)[nH]c(N)nc2=O)cc1	inactive
O=C(O)Cc1cc(Cl)ccc1O	inactive
